# assay_method_text: qHTS RealTime-Glo MT Cell Viability Assay in HEK293 cells - 24 hour (AID 1224886); further: nearly all actives have a fitted effect of over 50% in size; further: potency means the concentration at half of the fitted maximal effect
# condition_details: RealTime-Glo luminescence; series mostly up to 76.8 µM
Records with an inconclusive call do not appear. Calls of active or inactive are those of the source. The call rests on the fitted dose curve; in most records, active means well fitted cell-killing curve with a large enough effect in the repeat runs; inconclusive means weak or mixed curves, or effect the other way; inactive means flat fitted curve, though single readings scatter.
result_type: Potency

compound="COc1cc2c(cc1OC)C(C(C(=O)N(CCc1ccc(OC)c(OC)c1OC)CCc1ccc(OC)c(OC)c1OC)c1ccccc1)=NCC2 (centres undefined)" result="3.38 µM (active)"
compound=CCN(CC)c1ccc2c(-c3ccccc3C(=O)O)c3ccc(=[N+](CC)CC)cc-3oc2c1 result="24.5 µM (active)"
compound=CCn1cc(C(=O)O)c(=O)c2cnc(N3CCNCC3)nc21 result=inactive
compound=O=C(NCCO[N+](=O)[O-])c1cccnc1 result=inactive
